test system: LOX IMVI melanoma; test: NCI tumour cell line growth inhibition, 48 h
Record form. Attribute: TGI. Fill in for each entry.

molecule	TGI
Brc1ccc2c3c1[C@H]1O[C@H]1c1cccc(c1-3)[C@@H]1O[C@H]21	9.39 µM

Hey, can you go through the list below and give me TGI for every item?
1. O=C(O)C[C@@H]1[C@@H](O)[C@@H](O)CN2C(=O)c3ccccc3[C@H]12
2. Cc1ccc2c(=O)c(C(=O)Nn3c(C)csc3=S)c[nH]c2n1
3. CC12CC3OC(=O)C1COC14OC5(C2C1=O)C(O)(CCC1C4CC2OC24CC=CC(=O)C14C)C(=O)OC35C (centres undefined)
4. COc1cc([C@@H]2c3cc4c(cc3[C@@H](Nc3ccccc3C(=O)c3ccccc3)[C@H]3COC(=O)[C@H]23)OCO4)cc(OC)c1OC
5. Cc1cn(CCCCCCC2=NCCCN2)c(=O)[nH]c1=O
6. Cn1c(=O)c(NC(=O)C(Cl)(Cl)Cl)nc2ccccc21
7. CN(COC(=O)c1ccccc1)c1nc(N(C)COC(=O)c2ccccc2)nc(N(C)COC(=O)c2ccccc2)n1

Result ::
["> 100 µM", "> 100 µM", "29.5 µM", "> 100 µM", "> 100 µM", "> 100 µM", "> 100 µM"]

Query :: Find the recorded TGI belonging to CCC(c1ccc(OC)cc1)C(CC)c1ccc(O)c(CN2CCN(C)CC2)c1 (centres undefined) and report it.
Result :: 7.64 µM

* * *

test system: NCI-H522 lung; test: NCI tumour cell line growth inhibition, 48 h
Field: log10(TGI). Provide a value for each of the molecules that follow.
Annotation: log10 of TGI, µM basis.

Use the examples below as a reference point.
molecule	log10(TGI)
CCOc1ccc2c(c1)[n+]([O-])c(-c1ccc(Br)cc1)c(N)[n+]2[O-]	1.53
COc1ccc(S(=O)(=O)NC2=NCCN2C(=S)SN2CCn3c2nsc3=S)cc1	1.54
Oc1ccc(O)c(-c2cc(-c3ccc(Cl)cc3)nn2-c2ccccc2)c1	0.74
C=C1C(=O)O[C@H]2[C@H]3O[C@@H](C[C@@H]12)[C@@]1(C)CC[C@H](O1)[C@H](C)CCC[C@H]3C	0.45
Cc1cc2cc3ccc(N(C)C)cc3nc2cc1N	0.38

I need log10(TGI) for every entry listed below, if you could help.
1. Cn1nc(-c2ccc(Cl)cc2)nc2c(=O)n(C)c(=O)nc1-2
2. Cc1ccc(-n2cc(-c3ccc(Cl)cc3)c3c(N/N=C4\SCC(=O)N4C)ncnc32)cc1
3. O=[N+]([O-])c1ccc(C2CC(c3ccccc3Cl)=Nc3ccccc3S2=O)cc1 (centres undefined)
4. CC(=O)c1c(CN(C)c2ccccc2)n([O-])c2ccccc2[n+]1=O

Result ::
0.22
1.43
0.52
1.84

Could you report log10(TGI) for every entry in the following list?
1. CC(=O)NC1C(OCc2ccccc2)OC(CO)C(O)C1OC(C)C(=O)N[C@@H](C)C(=O)N[C@H](CCC(=O)OCCNc1c2ccccc2nc2cccc([N+](=O)[O-])c12)C(N)=O (some centres undefined)
2. COc1cccc2c1-c1c(c3ccc([N+](=O)[O-])cc3c(=O)n1CCCN)C2=O

Result ::
-2.17
0.28

* * *

test system: HS 578T breast; assay: NCI tumour cell line growth inhibition, 48 h; in the data active means GI50 below about 0.43 µM; inactive means the rest
One label from this list, please: true = active, false = inactive

Reference set, count: 2
molecule	label class
Cc1cc(Nc2nc(-c3cccnc3)nc3ccccc23)n[nH]1	true
Nc1nc(N)c(C=Nc2ccc(Br)cc2)c(Nc2ccc(Br)cc2)n1	false

Query :: How was Cc1cc(S(=O)(=O)/N=C/N(C)C)c(SC(=O)c2ccc(Cl)cc2)cc1Cl classified in this test?
Result :: false

Query :: Would you kindly repeat that for CCOc1cc(Br)c(C(C)NC(=O)c2cccc(OC)c2)cc1OCC (stereo not given) ?
Result :: false

Query :: Then this molecule: Cc1cc2cc3ccc(N(C)C)cc3nc2cc1N
Result :: false

The measurements presented in this section are drawn from PubChem BioAssay (NCI).
